Cited source: PubChem BioAssay AID280

System: nude mice, LOX melanoma ip, survival T/C
procedure-summary: NCI In Vivo Anticancer Drug Screen. Data for tumor model Human Amelanotic Melanoma (LOX) (intraperitoneal) in NU/NU BALB/C (nude) mice
particulars: endpoint: median survival time; dose: 300.0 mg/kg/injection; schedule: Q04DX003 (ip); vehicle: saline with Tween-80
Toxic doses and inconclusive results are not listed. How the source made its calls: active means survival T/C of 150% or more; inactive means T/C below 125% in these data.
Outcome codes: label 1 (active), label 0 (inactive)

>>> assigned_category("S=c1sc2ccccc2n1CN1CCOCC1")
"label 0"
>>> assigned_category("S=C(NCNC(=S)c1ccncc1)c1ccncc1")
"label 0"
>>> assigned_category("CN=C(N)N/N=C(\\C)c1ccc2sc3ccc(/C(C)=N/NC(N)=NC)cc3c2c1")
"label 1"
>>> assigned_category("Cc1cc(Br)c2nsnc2c1[N+](=O)[O-]")
"label 0"
>>> assigned_category("CCCCCCCCCCCCCCCCCCOCC(CO)OC (stereo unspecified)")
"label 1"
>>> assigned_category("COc1cc(C(=O)N/N=C/c2cccc([N+](=O)[O-])c2)cc(OC)c1OC")
"label 0"
>>> assigned_category("CN(C=O)C(C(=O)Nc1cccc2c(OC(=O)C(N(C)C=O)(N(C)C=O)N(C)C=O)c(N=Nc3ccc(S(=O)(=O)Nc4nccs4)cc3)cc(N=Nc3ccc(S(=O)(=O)Nc4nccs4)cc3)c12)(N(C)C=O)N(C)C=O (tested in a mixture with another compound)")
"label 0"
>>> assigned_category("COc1ccc(C[C@@H]2NC[C@@H](O)[C@@H]2OC(C)=O)cc1")
"label 0"
>>> assigned_category("O=C(CCCCCCC(=O)ON1C(=O)CCC1=O)ON1C(=O)CCC1=O")
"label 0"
>>> assigned_category("NC(=O)c1cc(Cl)nc2nc(Cl)nc(N)c12")
"label 0"
>>> assigned_category("Nc1ccc2ccc(NS(=O)(=O)N3CCCCC3)cc2c1")
"label 1"

* * *

Tested on: nude mice, LOX melanoma ip, survival T/C
procedure-summary: NCI In Vivo Anticancer Drug Screen. Data for tumor model Human Amelanotic Melanoma (LOX) (intraperitoneal) in NU/NU BALB/C (nude) mice
particulars: endpoint: median survival time; dose: 600.0 mg/kg/injection; schedule: Q04DX003 (ip); vehicle: Klucel (hydroxypropylcellulose) (HPC)
Toxic doses and inconclusive results are not listed. Rule for the calls: active = survival T/C of 150% or more; inactive = T/C below 125% in these data.
Outcome codes: 1 (active), 0 (inactive)

>>> assigned_category("O=C1CNC(=O)N1CN1CCOCC1")
1
>>> assigned_category("CC(C)(C)c1ccc(C(=O)N2CCOC23CCCCC3)cc1")
0
>>> assigned_category("COc1cc(C)c(C2NC(=O)c3ccccc3N2)cc1C (stereo unspecified)")
1
>>> assigned_category("CCOC(=O)/C=C/C(=O)N1CCN(C(=O)/C=C/C(=O)OCC)C(C)C1 (stereo unspecified)")
0
>>> assigned_category("O=C1CC2(C(=O)N1CN1CCOCC1)c1ccccc1-c1ccccc12")
0
>>> assigned_category("NC(N)=NS(=O)(=O)c1ccc(NCc2c3ccccc3nc3ccccc23)cc1")
1

* * *

Tested on: nude mice, LOX melanoma ip, survival T/C
procedure-summary: NCI In Vivo Anticancer Drug Screen. Data for tumor model Human Amelanotic Melanoma (LOX) (intraperitoneal) in NU/NU BALB/C (nude) mice
particulars: endpoint: median survival time; dose: 1200.0 mg/kg/injection; schedule: Q04DX003 (ip); vehicle: Klucel (hydroxypropylcellulose) (HPC)
Inconclusive results and toxic doses are left out. Rule for the calls: active = survival T/C of 150% or more; inactive = T/C below 125% in these data.
Possible outcomes: active, inactive

>>> assigned_category("NC(N)=NS(=O)(=O)c1ccc(NCc2c3ccccc3nc3ccccc23)cc1")
"active"
>>> assigned_category("CN(C)C(=O)SC1=C(c2c(Cl)cccc2Cl)C(=O)c2ccccc21")
"inactive"
>>> assigned_category("CC(C)(C)c1ccc(C(=O)N2CCOC23CCCCC3)cc1")
"inactive"
>>> assigned_category("COc1cc(C)c(C2NC(=O)c3ccccc3N2)cc1C (centres undefined)")
"active"
